protocol_summary: 1st Phase I study, rising single i.v. dose, healthy male volunteers
Format: in vivo, human
experimental_setup: male, human, plasma, iv; 200 mg single i.v. infusion, healthy volunteers, mean ± SE
experimental_readout: MRT (h)
Give the value in h but do not write h after it.

Query: Quickly give me recorded MRT for CCCCCCC(C)(C)c1cc(O)c2c(c1)OC(C)(C)[C@H]1CC=C(CO)C[C@H]21
Result: 4

* * *

protocol_summary: single dose toxicity and pharmacokinetics, rabbit
Assay type: in vivo, New Zealand White rabbits
experimental_setup: New Zealand White, plasma, iv; rabbit female, single i.v. 25 mg/kg (NOAEL)
experimental_readout: Cmax (ng/mL)
Please state the figure in ng/mL; there is no need to write the unit.

Query: For the molecule CCCCCCC(C)(C)c1cc(O)c2c(c1)OC(C)(C)[C@H]1CC=C(CO)C[C@H]21 , report Cmax.
Result: 34500

* * *

protocol_summary: 1st Phase I study, rising single i.v. dose, healthy male volunteers
Assay type: in vivo, human
experimental_setup: male, human, plasma, iv, single i.v. infusion 48, 100, 200 mg; read-out: intermediate phase elimination half-life
experimental_readout: half-life

Query: State its half-life: CCCCCCC(C)(C)c1cc(O)c2c(c1)OC(C)(C)[C@H]1CC=C(CO)C[C@H]21
Result: 1 to 2 h

* * *

protocol_summary: 2nd Phase I study, single i.v. dose 48 or 150 mg, healthy male volunteers
Type: in vivo, human
experimental_setup: male, human, plasma, iv; 150 mg single i.v. infusion, healthy volunteers, mean ± SE, up to 96 hr
experimental_readout: AUC
Output should be the measured figure followed by the unit it is expressed in.

Query: Output measured AUC for this item: CCCCCCC(C)(C)c1cc(O)c2c(c1)OC(C)(C)[C@H]1CC=C(CO)C[C@H]21
Result: 3180 ng·h/mL

* * *

protocol_summary: Phase II study, single i.v. dose in patients with severe head trauma
Format: in vivo, human
experimental_setup: human, plasma, iv; 150 mg single i.v. infusion (n = 20), severe TBI patients, mean ± SE
experimental_readout: MRT (h)
All answers are understood in h, so give the number only.

Query: Give reported MRT value for CCCCCCC(C)(C)c1cc(O)c2c(c1)OC(C)(C)[C@H]1CC=C(CO)C[C@H]21
Result: 3.8

* * *

protocol_summary: Phase II study, single i.v. dose in patients with severe head trauma
Type: in vivo, human
experimental_setup: human, plasma, iv; 150 mg single i.v. infusion (n = 20), severe TBI patients, mean ± SE, up to 24 hr
experimental_readout: Cmax
Answer as a quantity: numeral, then unit.

Query: Provide one value: measured Cmax of CCCCCCC(C)(C)c1cc(O)c2c(c1)OC(C)(C)[C@H]1CC=C(CO)C[C@H]21
Result: 1.97 µg/mL

* * *

protocol_summary: 1st Phase I study, rising single i.v. dose, healthy male volunteers
Type: in vivo, human
experimental_setup: male, human, plasma, iv, 48 mg, 48 mg single i.v. infusion, healthy volunteers, mean ± SE; read-out: t1/2 (converted)
Protocol: Pharmacokinetic parameters were estimated by a non-compartmental method using WinNonlin Professional version 3.2 (Pharsight Corp., Mountain View, Calif.). […] The terminal slope (X) was estimated by linear regression through the last time points and used to calculate the terminal half-life (t1/2) from the following equation: t1/2=0.693/λ The area under the curve from time of dosing through the last time point (AUCz) was calculated by the linear trapezoid method. […]
experimental_readout: half-life (h)
Only the number, expressed in h, is required.

Query: Please give measured half-life of the following entry: CCCCCCC(C)(C)c1cc(O)c2c(c1)OC(C)(C)[C@H]1CC=C(CO)C[C@H]21
Result: 6.3

* * *

protocol_summary: Phase II study, single i.v. dose in patients with severe head trauma
Assay type: in vivo, human
experimental_setup: human, plasma, iv; 200 mg single i.v. infusion (n = 21), severe TBI patients, mean ± SE
experimental_readout: MRT

Query: Report measured MRT; entry is CCCCCCC(C)(C)c1cc(O)c2c(c1)OC(C)(C)[C@H]1CC=C(CO)C[C@H]21
Result: 3.5 h

* * *

protocol_summary: Phase II study, single i.v. dose in patients with severe head trauma
Type: in vivo, human
experimental_setup: human, plasma, iv; 200 mg single i.v. infusion (n = 21), severe TBI patients, mean ± SE
experimental_readout: AUC(0-inf) (ng·h/mL)
Quick note: give the figure in ng·h/mL, leave out the unit.

Query: Look up AUC(0-inf) of CCCCCCC(C)(C)c1cc(O)c2c(c1)OC(C)(C)[C@H]1CC=C(CO)C[C@H]21 and report it.
Result: 3250

* * *

protocol_summary: single dose toxicity and pharmacokinetics, monkey
Type: in vivo, Cynomolgus monkeys
experimental_setup: cynomolgus monkey, plasma, iv; monkey male, single i.v. 50 mg/kg (NOAEL)
experimental_readout: AUC(0-inf)
The answer consists of two parts: a number and, after it, its unit.

Query: State its AUC(0-inf) for this compound: CCCCCCC(C)(C)c1cc(O)c2c(c1)OC(C)(C)[C@H]1CC=C(CO)C[C@H]21
Result: 117 µg·h/mL

* * *

protocol_summary: single dose toxicity and pharmacokinetics, monkey
Format: in vivo, Cynomolgus monkeys
experimental_setup: cynomolgus monkey, plasma, iv; monkey female, single i.v. 50 mg/kg (NOAEL)
experimental_readout: Cmax (µg/mL)
Response body: numeric value in µg/mL, unit text excluded.

Query: Write down Cmax measured for item CCCCCCC(C)(C)c1cc(O)c2c(c1)OC(C)(C)[C@H]1CC=C(CO)C[C@H]21 [dexanabinol]
Result: 175

* * *

protocol_summary: single dose toxicity and pharmacokinetics, rabbit
Type: in vivo, New Zealand White rabbits
experimental_setup: both sexes, New Zealand White, plasma, iv; rabbit male & female, single i.v. 25 mg/kg (NOAEL)
experimental_readout: Cmax (ng/mL)
Give your result in ng/mL as a bare value.

Query: Assign Cmax to the following record: CCCCCCC(C)(C)c1cc(O)c2c(c1)OC(C)(C)[C@H]1CC=C(CO)C[C@H]21 [dexanabinol]
Result: 33400

* * *

protocol_summary: 14-day multiple dose pharmacokinetic/toxicity study, rat
Assay type: in vivo, rats
experimental_setup: plasma, iv; rat female, 15 mg/kg i.v. daily, final dose Day 14 (NOAEL)
experimental_readout: AUC(0-inf) (ng·h/mL)
Express your answer in ng·h/mL, writing the number without its unit.

Query: Return AUC(0-inf) (reported value) for this compound: CCCCCCC(C)(C)c1cc(O)c2c(c1)OC(C)(C)[C@H]1CC=C(CO)C[C@H]21
Result: 58600

* * *

protocol_summary: 14-day multiple dose pharmacokinetic/toxicity study, rabbit
Assay type: in vivo, rabbits
experimental_setup: both sexes, plasma, iv; rabbit male & female, 25 mg/kg i.v. daily, final dose Day 14 (NOAEL)
experimental_readout: AUC(0-inf) (ng·h/mL)
Dear colleague, please return just the value in ng·h/mL, with no unit written.

Query: Tell us which AUC(0-inf) value is on record for CCCCCCC(C)(C)c1cc(O)c2c(c1)OC(C)(C)[C@H]1CC=C(CO)C[C@H]21
Result: 67700

* * *

protocol_summary: 1st Phase I study, rising single i.v. dose, healthy male volunteers
Type: in vivo, human
experimental_setup: male, human, plasma, iv; 200 mg single i.v. infusion, healthy volunteers, mean ± SE, up to 24 hr
experimental_readout: AUC (ng·h/mL)
Numbers only; they are read as ng·h/mL.

Query: Fill in reported AUC for this entry: CCCCCCC(C)(C)c1cc(O)c2c(c1)OC(C)(C)[C@H]1CC=C(CO)C[C@H]21 [dexanabinol]
Result: 2240

* * *

protocol_summary: 14-day multiple dose pharmacokinetic/toxicity study, rabbit
Type: in vivo, rabbits
experimental_setup: plasma, iv; rabbit male, 25 mg/kg i.v. daily, final dose Day 14 (NOAEL)
experimental_readout: AUC(0-inf) (ng·h/mL)
Express your answer in ng·h/mL, writing the number without its unit.

Query: Please indicate AUC(0-inf) recorded for CCCCCCC(C)(C)c1cc(O)c2c(c1)OC(C)(C)[C@H]1CC=C(CO)C[C@H]21
Result: 67700

* * *

protocol_summary: 1st Phase I study, rising single i.v. dose, healthy male volunteers
Format: in vivo, human
experimental_setup: male, human, plasma, iv; 100 mg single i.v. infusion, healthy volunteers, mean ± SE, up to 24 hr
experimental_readout: AUC (µg·h/mL)
Report the figure in µg·h/mL without appending any unit label.

Query: Indicate the recorded AUC value for this compound: CCCCCCC(C)(C)c1cc(O)c2c(c1)OC(C)(C)[C@H]1CC=C(CO)C[C@H]21 [dexanabinol]
Result: 1.2

* * *

protocol_summary: 14-day multiple dose pharmacokinetic/toxicity study, rat
Assay type: in vivo, rats
experimental_setup: plasma, iv; rat male, 15 mg/kg i.v. daily, final dose Day 14 (NOAEL)
experimental_readout: AUC(0-inf) (ng·h/mL)
Your answer is read as ng·h/mL, so omit the unit and give the number.

Query: State its AUC(0-inf) for this molecule: CCCCCCC(C)(C)c1cc(O)c2c(c1)OC(C)(C)[C@H]1CC=C(CO)C[C@H]21
Result: 32700

Just for reference, patent US20070060636A1 is where these values come from.
